- Test system: LNCaP tumor-transplanted mouse
- MEASUREMENT_DESCRIPTION: Internal radioactivity distribution using LNCaP tumor-transplanted mouse
- Format: in vivo
- APPLIED_CONDITIONS: 96 h after administration
ENDPOINT: Blood (% ID/g)

compound="O=C([O-])CN(Cc1cccc(C(=O)[O-])n1)C[C@H](Cc1ccc(NC(=O)[C@H](CCCCNC(=O)CCC(=O)NCCCC[C@H](NC(=O)N[C@@H](CCC(=O)O)C(=O)O)C(=O)O)NC(=O)CCCc2ccc(I)cc2)cc1)N(CC(=O)[O-])Cc1cccc(C(=O)[O-])n1.[111In+3] [[^111In]In-Octapa-2]" reported_value=0.01
compound="O=C([O-])CN(Cc1cccc(C(=O)[O-])n1)C[C@H](Cc1ccc(NC(=O)CCCCCNC(=O)CCC(=O)NCCCC[C@H](NC(=O)N[C@@H](CCC(=O)O)C(=O)O)C(=O)O)cc1)N(CC(=O)[O-])Cc1cccc(C(=O)[O-])n1.[111In+3] [[^111In]In-Octapa-1, reference compound]" reported_value=0.02
